All values here come from paper PMC4388676.

Assay notes: Serum stability followed by LC-MS
Type: in vitro ADME
Condition parameters: 25% human serum, 37°C, peptide 0.3 μM, time points 0, 60, 120, 180, 360 and 900 min, TFA precipitation, LC-MS read-out, triplicate; read-out: Estimate t1/2 in serum (converted)
Measurement label: half-life at 0.3 μM (h)
Kindly provide the numeric value in h only, without the unit symbol.

For this substance ( Ac-NSGLSFEELYRNAYTMVLHK-NH2 [Cul3^49-68] ), measured half-life at 0.3 μM is 7
